experiment: The drug is tested on the gut metagenome community of P-04 with ENA study accession number: PRJEB31790 for biotransformation under microaerobic condition. The drug concentrations were measured over 7 timepoints collected between 0 and 12 hours of incubation by liquid-chromatography-coupled mass spectrometry (LC–MS); type: ADME; design: dose 5 uM, timepoint 0, 0.75, 1.5, 3, 6, 9, 12 hours; settings: 5 µM
reported_metric: Bacterial Biotransformation

INSERT INTO results (molecule, data_value) VALUES
  ('Cn1cnc([N+](=O)[O-])c1Sc1ncnc2nc[nH]c12 [AZATHIOPRINE]', 'Compound NOT metabolized'),
  ('NS(=O)(=O)c1cc(C(=O)O)c(NCc2ccco2)cc1Cl [FUROSEMIDE]', 'Compound NOT metabolized'),
  ('C[C@H]1C[C@@H]2[C@H]([C@@H](O)C[C@@]3(C)[C@H]2CC[C@]3(O)C(=O)CO)[C@@]2(C)C=CC(=O)C=C12 [METHYLPREDNISOLONE]', 'Compound metabolized'),
  ('CNC(=C[N+](=O)[O-])NCCSCc1ccc(CN(C)C)o1 [RANITIDINE]', 'Compound NOT metabolized'),
  ('CCCC1O[C@@H]2C[C@H]3[C@@H]4CCC5=CC(=O)C=C[C@]5(C)[C@H]4[C@@H](O)C[C@]3(C)[C@]2(C(=O)CO)O1 (some centres not stated) [BUDESONIDE]', 'Compound NOT metabolized'),
  ('CN(Cc1cnc2nc(N)nc(N)c2n1)c1ccc(C(=O)N[C@@H](CCC(=O)O)C(=O)O)cc1 [METHOTREXATE]', 'Compound NOT metabolized'),
  ('COc1c(C)c2c(c(O)c1C/C=C(\C)CCC(=O)O)C(=O)OC2 [MYCOPHENOLIC ACID]', 'Compound NOT metabolized'),
  ('CCOc1nc2cccc(C(=O)O)c2n1Cc1ccc(-c2ccccc2-c2nnn[nH]2)cc1', 'Compound NOT metabolized'),
  ('CO[C@H]1C[C@@H]2CC[C@@H](C)[C@@](O)(O2)C(=O)C(=O)N2CCCC[C@H]2C(=O)O[C@H]([C@H](C)C[C@@H]2CC[C@@H](O)[C@H](OC)C2)CC(=O)[C@H](C)/C=C(\C)[C@@H](O)[C@@H](OC)C(=O)[C@H](C)C[C@H](C)/C=C/C=C/C=C/1C [SIROLIMUS]', 'Compound NOT metabolized'),
  ('CCOC(=O)C1=C(COCCN)NC(C)=C(C(=O)OC)C1c1ccccc1Cl (configuration not stated) [AMLODIPINE]', 'Compound NOT metabolized'),
  ('C[C@]12CCC(=O)C=C1CC[C@@H]1[C@@H]2C(=O)C[C@@]2(C)[C@H]1CC[C@]2(O)C(=O)CO [CORTISONE]', 'Compound metabolized'),
  ('C[C@]12CCC(=O)C=C1CC[C@@H]1[C@@H]2[C@@H](O)C[C@@]2(C)[C@H]1CC[C@]2(O)C(=O)CO [HYDROCORTISONE]', 'Compound metabolized'),
  ('CC(C)NCC(O)COc1ccc(CC(N)=O)cc1 (configuration not stated) [ATENOLOL]', 'Compound NOT metabolized'),
  ('C[C@@H](NCCCc1cccc(C(F)(F)F)c1)c1cccc2ccccc12', 'Compound NOT metabolized'),
  ('C[C@@H]1C[C@H]2[C@@H]3CCC4=CC(=O)C=C[C@]4(C)[C@@]3(F)[C@@H](O)C[C@]2(C)[C@@]1(O)C(=O)CO [DEXAMETHASONE]', 'Compound NOT metabolized'),
  ('COc1c(C)c2c(c(O)c1C/C=C(\C)CCC(=O)OCCN1CCOCC1)C(=O)OC2 [MYCOPHENOLATE MOFETIL]', 'Compound metabolized'),
  ('C[C@]12C=CC(=O)C=C1CC[C@@H]1[C@@H]2C(=O)C[C@@]2(C)[C@H]1CC[C@]2(O)C(=O)CO [PREDNISONE]', 'Compound metabolized'),
  ('C[C@H]1C[C@H]2[C@@H]3CCC4=CC(=O)C=C[C@]4(C)[C@@]3(F)[C@@H](O)C[C@]2(C)[C@@]1(O)C(=O)CO [BETAMETHASONE]', 'Compound NOT metabolized'),
  ('CCOC(=O)[C@H](CCc1ccccc1)N[C@@H](C)C(=O)N1[C@H](C(=O)O)C[C@@H]2CCC[C@@H]21', 'Compound NOT metabolized'),
  ('C=CC[C@@H]1/C=C(\C)C[C@H](C)C[C@H](OC)[C@H]2O[C@@](O)(C(=O)C(=O)N3CCCC[C@H]3C(=O)O[C@H](/C(C)=C/[C@@H]3CC[C@@H](O)[C@H](OC)C3)[C@H](C)[C@@H](O)CC1=O)[C@H](C)C[C@@H]2OC.O [TACROLIMUS]', 'Compound NOT metabolized'),
  ('COc1ccc([C@@H]2Sc3ccccc3N(CCN(C)C)C(=O)[C@@H]2OC(C)=O)cc1 [DILTIAZEM]', 'Compound NOT metabolized'),
  ('C[C@]12C=CC(=O)C=C1CC[C@@H]1[C@@H]2[C@@H](O)C[C@@]2(C)[C@H]1CC[C@]2(O)C(=O)CO [PREDNISOLONE]', 'Compound metabolized');
